B1: glmS ribozyme (parent)
chain: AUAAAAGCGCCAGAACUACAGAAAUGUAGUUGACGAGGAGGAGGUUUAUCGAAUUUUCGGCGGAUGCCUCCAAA

Variants of: B1
Assay: self-cleavage kobs at 2500 uM GlcN6P; higher = faster cleavage; RNA array
Details: with glucosamine-6-phosphate
Variants at the floor of the assay were thinned out.
I'd appreciate it if you could supply self-cleavage kobs at 2500 uM GlcN6P values for the items below.
Give bare numbers, in s⁻¹.

Observe how each entry below is paired with its result.
| sequence_variant | self-cleavage kobs at 2500 uM GlcN6P, s⁻¹ |
| --- | --- |
| C11A U56A | 7.89e-05 |
| G29A U65G | 0.000664 |
| A14C C50G | 4.32e-05 |
| A6U C70U | 0.00021 |
| A48C U54C | 0.000224 |
| C16U U46C A53U | 0.00078 |
| G29A U65A | 0.000122 |
| G41A U46A | 0.000531 |

Each of the following entries comes with a recorded value; kindly state self-cleavage kobs at 2500 uM GlcN6P for each.
1. G40A A42G A53U
2. A14C C50G C70G
3. U55G U57C
4. U31G A39C U45A

0.000522
0.000126
7.83e-05
0.00161

Each of the following entries comes with a recorded value; kindly state self-cleavage kobs at 2500 uM GlcN6P for each.
1. U30A G40U U45A
2. G32A C50U C70A
3. A14G C16U A36G
4. C50G C58A G62C G63C C70A
5. G13U U46G
6. G32A C71U

1. 0.000226
2. 5.7e-05
3. 4.05e-05
4. 0.000239
5. 0.000107
6. 0.00122
